Consider the following molecules and their measured IC50 readings.
# Assay Target: QR2 (Homo sapiens, UniProt P16083)
# Sequence (P16083 1-231): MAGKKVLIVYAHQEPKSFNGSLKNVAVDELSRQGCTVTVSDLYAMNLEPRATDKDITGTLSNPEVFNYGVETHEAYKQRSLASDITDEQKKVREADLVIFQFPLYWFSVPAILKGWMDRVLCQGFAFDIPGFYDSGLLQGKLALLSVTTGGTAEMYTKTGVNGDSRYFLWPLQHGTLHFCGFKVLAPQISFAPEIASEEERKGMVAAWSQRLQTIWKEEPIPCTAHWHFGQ
# Test Method Notes: QR2 enzymatic activity assay (menadione/BNAH), fluorescence readout
# Assay type: biochemical
# Design: purchased Sigma-Aldrich

[[record]]
molecule = "Cc1csc(-c2cc(S(=O)(=O)NC3CCCCC3)c(C)n2C)n1"
assay_target = "QR2 (Homo sapiens, UniProt P16083)"
reported_value = "> 9.9 µM"

[[record]]
molecule = "N#Cc1nc(-c2ccc(S(=O)(=O)N3CCCC3)cc2)oc1NCCCN1CCOCC1"
assay_target = "QR2 (Homo sapiens, UniProt P16083)"
reported_value = "< 0.83 µM"

[[record]]
molecule = "COCC1CN(S(=O)(=O)Cc2ccccc2)CC12CCNCC2 (centres unmarked)"
assay_target = "QR2 (Homo sapiens, UniProt P16083)"
reported_value = "> 9.9 µM"


q: Tell me reported IC50 for "CCCn1cc(C2=CCN(S(=O)(=O)Cc3ccccc3)CC2)c2cccnc21" , tested with QR2 (Homo sapiens, UniProt P16083).
a: > 9.9 µM

q: Tell me reported IC50 for "CC(=O)N1CCOc2ccc(S(=O)(=O)N3CCCc4ccccc43)cc21" , tested with QR2 (Homo sapiens, UniProt P16083).
a: > 9.9 µM

q: Tell me reported IC50 for "O=c1n(Cc2ccc(Cl)cc2)nc2ccc(S(=O)(=O)N3CCCCC3)cn12" , tested with QR2 (Homo sapiens, UniProt P16083).
a: > 9.9 µM

q: Tell me reported IC50 for "CCOC(=O)c1cc(-c2ccc(OC)c(S(=O)(=O)N3CCCc4ccccc43)c2)on1" , tested with QR2 (Homo sapiens, UniProt P16083).
a: > 9.9 µM

q: Tell me reported IC50 for "Cc1ccn2cc(-c3cccc(S(=O)(=O)N4CCCCCC4)c3)nc2c1" , tested with QR2 (Homo sapiens, UniProt P16083).
a: 1.27 µM

q: Tell me reported IC50 for "Cc1cc(-c2ccc(C)c(S(=O)(=O)N3CCCCCC3)c2)on1" , tested with QR2 (Homo sapiens, UniProt P16083).
a: 1.92 µM

q: Tell me reported IC50 for "CCCN(CCC)S(=O)(=O)c1cccc(-c2cn3cccc(C)c3n2)c1" , tested with QR2 (Homo sapiens, UniProt P16083).
a: 0.83 µM

q: Tell me reported IC50 for "CCCn1cc(C2CCN(S(=O)(=O)c3ccc(C(C)(C)C)cc3)CC2)c2cccnc21" , tested with QR2 (Homo sapiens, UniProt P16083).
a: > 9.9 µM

q: Tell me reported IC50 for CS(=O)(=O)N(C1CC1)C1CCOC2(CCN(C(=O)C3(c4ccccc4)CC3)CC2)C1 (centres unmarked) , tested with QR2 (Homo sapiens, UniProt P16083).
a: > 9.9 µM

q: Tell me reported IC50 for "CNC(=O)N1CCc2cc(S(=O)(=O)N3CCc4ccccc43)ccc21" , tested with QR2 (Homo sapiens, UniProt P16083).
a: > 9.9 µM
